Measured values drawn from patent US20170107203A1 for this set.

target: human Nav1.7 (Homo sapiens); construct: expressed in transfected cells; assay: Assessment of Nav1.7 activity on PatchXpress (voltage dependence / slow inactivation parameters); format: cell-based; settings: compound at 10 μM; relative to 0.2% DMSO vehicle control
observed-property: hNav1.7: Voltage dependence of fast inactivation (mV) VDEP
Entry rule: numbers only, all in mV.

Past entries and their recorded results:
{"columns": ["smiles-entry", "number"],
 "data": [
  ["C[C@@H](NC(=O)CN1CCNCC1=O)c1ccc(OCC(F)(F)F)cn1", "−5"],
  ["NCC[C@@H]1Nc2c(cc(C(F)(F)F)cc2C(F)(F)F)NC1=O", "−3.10"],
  ["CC(C)(CC(=O)N1CCNCC1)c1nc2cc(C(F)(F)F)cc(C(F)(F)F)c2[nH]1", "−3.8"],
  ["CC[C@@H](C)[C@@H](N)C(=O)NCCOc1cc(F)cc(C(F)(F)F)c1", "−3.50"],
  ["O=C(NCCOc1cc(F)cc(C(F)(F)F)c1)[C@@H]1CCCN1", "−1.80"],
  ["O=C1CNCCN1Cc1cc(C(F)(F)F)cc(C(F)(F)F)c1", "−4.1"],
  ["O=C(NC[C@H]1CCCN1)Nc1cc(C(F)(F)F)cc(C(F)(F)F)c1", "−7.80"],
  ["NC1(c2nc3cc(C(F)(F)F)cc(C(F)(F)F)c3[nH]2)Cc2ccccc2C1", "−8.2"]
]}

Query compound follows.
Lab note: measured hNav1.7: Voltage dependence of fast inactivation (mV) VDEP of O=C(Cc1nc2cc(F)cc(F)c2[nH]1)NC1CCNCC1 was −4.4

###

In this section, each of the molecules is paired with its reported hNav1.7: Voltage dependence of activation (mV) VDEP.
molecular target: human Nav1.7 (Homo sapiens); construct: expressed in transfected cells; test: Assessment of Nav1.7 activity on PatchXpress (voltage dependence / slow inactivation parameters); type: cell-based; conditions: compound at 10 μM; relative to 0.2% DMSO vehicle control

Consider the worked cases shown below.
{"columns": ["molecule", "result"],
 "data": [
  ["CC(C)C[C@@H](N)C(=O)NC(COc1cc(C(F)(F)F)cc(C(F)(F)F)c1)c1ccccc1 (some centres unmarked) [Compound 38]", "−11.5 mV"],
  ["CC(C)(c1nc2cc(F)cc(F)c2[nH]1)N1CCNCC1=O [Compound 64]", "−7.1 mV"],
  ["O=C(CCc1nc2cc(F)cc(F)c2[nH]1)N1CCNCC1 [Compound 66]", "−14.5 mV"],
  ["Cc1cccc(C)c1OCC(C)NC(=O)CN (centres unmarked) [Compound 17]", "−5.80 mV"]
]}

Input NCC(=O)NCc1cc(C(F)(F)F)cc(C(F)(F)F)c1 [Compound 78] . Output hNav1.7: Voltage dependence of activation (mV) VDEP: −10.5 mV

###

molecular target: human Nav1.7 (Homo sapiens, UniProt Q15858); construct: expressed in transfected cells; assay: Assessment of Nav1.7 activity on PatchXpress (voltage dependence / slow inactivation parameters); assay type: cell-based; settings: compound at 10 μM; relative to 0.2% DMSO vehicle control; PatchXpress
Sequence (Q15858 whole entry): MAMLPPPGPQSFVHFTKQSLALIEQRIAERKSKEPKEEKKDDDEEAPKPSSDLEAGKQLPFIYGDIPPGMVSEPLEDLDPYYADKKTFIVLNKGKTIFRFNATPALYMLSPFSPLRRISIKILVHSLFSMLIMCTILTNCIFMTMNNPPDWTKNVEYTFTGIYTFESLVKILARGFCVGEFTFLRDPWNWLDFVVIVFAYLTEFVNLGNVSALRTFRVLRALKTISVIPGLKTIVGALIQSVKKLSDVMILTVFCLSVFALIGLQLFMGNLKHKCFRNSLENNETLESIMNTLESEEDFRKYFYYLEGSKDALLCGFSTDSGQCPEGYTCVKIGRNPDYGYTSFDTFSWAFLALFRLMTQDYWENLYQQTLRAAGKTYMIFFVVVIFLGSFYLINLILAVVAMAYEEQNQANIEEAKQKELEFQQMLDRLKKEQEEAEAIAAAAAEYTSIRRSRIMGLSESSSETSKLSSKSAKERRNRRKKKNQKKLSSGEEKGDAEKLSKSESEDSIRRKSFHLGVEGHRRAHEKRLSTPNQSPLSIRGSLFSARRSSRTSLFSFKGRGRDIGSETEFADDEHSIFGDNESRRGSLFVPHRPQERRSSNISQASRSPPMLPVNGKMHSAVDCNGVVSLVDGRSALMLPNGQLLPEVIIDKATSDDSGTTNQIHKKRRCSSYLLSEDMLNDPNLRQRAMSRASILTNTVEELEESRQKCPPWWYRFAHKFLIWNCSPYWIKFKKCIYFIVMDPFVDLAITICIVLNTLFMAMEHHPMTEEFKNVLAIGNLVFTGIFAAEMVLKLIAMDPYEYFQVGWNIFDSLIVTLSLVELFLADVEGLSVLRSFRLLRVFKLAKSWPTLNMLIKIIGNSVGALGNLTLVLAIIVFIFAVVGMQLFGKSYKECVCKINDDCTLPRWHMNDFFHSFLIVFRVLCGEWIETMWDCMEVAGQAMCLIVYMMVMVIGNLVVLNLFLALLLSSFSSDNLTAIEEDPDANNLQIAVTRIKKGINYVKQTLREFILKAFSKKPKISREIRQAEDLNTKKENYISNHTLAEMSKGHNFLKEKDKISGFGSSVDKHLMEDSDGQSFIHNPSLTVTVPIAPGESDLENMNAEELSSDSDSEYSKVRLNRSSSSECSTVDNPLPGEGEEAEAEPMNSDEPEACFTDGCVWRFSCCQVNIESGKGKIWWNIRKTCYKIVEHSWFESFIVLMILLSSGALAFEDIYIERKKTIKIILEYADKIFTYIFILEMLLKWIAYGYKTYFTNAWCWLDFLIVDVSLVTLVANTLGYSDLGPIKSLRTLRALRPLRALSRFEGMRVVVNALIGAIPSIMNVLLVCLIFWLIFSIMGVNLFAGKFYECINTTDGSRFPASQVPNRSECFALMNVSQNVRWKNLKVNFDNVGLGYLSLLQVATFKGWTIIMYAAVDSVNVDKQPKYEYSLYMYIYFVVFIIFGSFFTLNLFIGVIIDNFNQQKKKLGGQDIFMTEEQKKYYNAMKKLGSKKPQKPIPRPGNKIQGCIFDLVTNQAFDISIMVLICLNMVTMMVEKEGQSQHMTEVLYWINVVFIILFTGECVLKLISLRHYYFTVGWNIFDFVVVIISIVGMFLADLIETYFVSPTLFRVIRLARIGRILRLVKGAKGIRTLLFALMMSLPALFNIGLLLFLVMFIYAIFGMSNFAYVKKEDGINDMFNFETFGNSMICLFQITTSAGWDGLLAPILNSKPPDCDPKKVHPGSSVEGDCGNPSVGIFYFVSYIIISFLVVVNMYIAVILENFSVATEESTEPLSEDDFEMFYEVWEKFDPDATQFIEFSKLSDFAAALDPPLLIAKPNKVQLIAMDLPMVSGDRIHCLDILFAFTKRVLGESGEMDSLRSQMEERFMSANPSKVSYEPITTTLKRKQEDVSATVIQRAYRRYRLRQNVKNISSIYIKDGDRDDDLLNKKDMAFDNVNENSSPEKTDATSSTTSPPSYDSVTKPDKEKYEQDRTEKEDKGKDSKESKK
Sequence (Q07699 19-218 partner): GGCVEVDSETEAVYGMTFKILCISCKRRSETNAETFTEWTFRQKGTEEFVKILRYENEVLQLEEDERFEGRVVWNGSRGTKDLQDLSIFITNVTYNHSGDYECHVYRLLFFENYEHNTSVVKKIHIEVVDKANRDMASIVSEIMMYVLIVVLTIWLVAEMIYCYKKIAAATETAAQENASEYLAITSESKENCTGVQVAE
observed-property: hNav1.7: Shift in voltage dependence of inactivation (mV) Delta Vhalf
Give just the number in mV; leave the unit off.

Answered examples (4):
{"columns": ["molecule", "experimental-system", "number"],
 "data": [
  ["N[C@@H](Cc1ccccc1)c1nc2cc(C(F)(F)F)cc(C(F)(F)F)c2[nH]1", "human Nav1.7 (Homo sapiens, UniProt Q15858)", "−20.8"],
  ["O=C1CNCCN1Cc1cc(C(F)(F)F)cc(C(F)(F)F)c1", "human Nav1.7 (Homo sapiens, UniProt Q15858)", "−3.1"],
  ["O=C1CNCCN1CCCc1nc2cc(C(F)(F)F)cc(C(F)(F)F)c2[nH]1", "human Nav1.7 (Homo sapiens, UniProt Q15858)", "−7.5"],
  ["C[C@@H](NC(=O)CN1CCNCC1=O)c1ccc(OCC(F)(F)F)cn1", "human Nav1.7 (Homo sapiens, UniProt Q15858)", "−2.8"]
]}

Here's the next entry for you.
Summary for this molecule, O=C(NCCOc1cc(F)cc(C(F)(F)F)c1)[C@H]1CCCN1 : hNav1.7: Shift in voltage dependence of inactivation (mV) Delta Vhalf is −7.20
